test system: HELA cells (Acc57); test: Cytotoxicity assay (MTT reduction), HELA cells; type: cell-based; details: Hela cells
Where a SMILES comes first, the peptide text is derived from it.

>  <compound>
CC[C@H](C)[C@@H]1NC(=O)[C@@H]2CCCN2C(=O)[C@@H]2CCCN2C(=O)[C@H](CC(=O)O)NC(=O)[C@H](CO)NC(=O)[C@H](CCCCN)NC(=O)[C@H]([C@@H](C)O)NC(=O)[C@@H]2CSSC[C@H](NC1=O)C(=O)N[C@@H](Cc1ccc(O)cc1)C(=O)N1CCC[C@@H]1C(=O)N1CCC[C@H]1C(=O)N[C@@H](C1CCCCC1)C(=O)N2 [Ex. 40] (HELM PEPTIDE1{[O=C([C@@H](N[*:1])C1CCCCC1)[*:2]].C.T.K.S.D.P.P.I.C.Y.[dP].P}$PEPTIDE1,PEPTIDE1,2:R3-10:R3|PEPTIDE1,PEPTIDE1,1:R1-13:R2$$$V2.0)

>  <target.system>
HELA cells (Acc57)

>  <Cytotoxicity LC50/GI50 Hela cells>
97 µM

$$$$
>  <compound>
CC[C@H](C)[C@@H]1NC(=O)[C@@H]2CCCN2C(=O)[C@@H]2CCCN2C(=O)[C@H](CC(=O)O)NC(=O)[C@H]([C@H](C)O)NC(=O)[C@H](CCCCN)NC(=O)[C@H]([C@@H](C)O)NC(=O)[C@@H]2CSSC[C@H](NC1=O)C(=O)N[C@@H](CO)C(=O)N1CCC[C@@H]1C(=O)N1CCC[C@H]1C(=O)N[C@@H](Cc1ccccc1)C(=O)N2 [Ex. 24] (HELM PEPTIDE1{F.C.T.K.[C[C@H](O)[C@H](N[*:1])C(=O)[*:2]].D.P.P.I.C.S.[dP].P}$PEPTIDE1,PEPTIDE1,2:R3-10:R3|PEPTIDE1,PEPTIDE1,1:R1-13:R2$$$V2.0)

>  <target.system>
HELA cells (Acc57)

>  <Cytotoxicity LC50/GI50 Hela cells>
99 µM

$$$$

----------
The following molecules are listed with their measured FXa at 100 μM % values.
molecular target: Coagulation Factor Xa, from uman plasma (Homo sapiens, UniProt P00742); assay: Enzymatic assay, coagulation factor Xa
Sequence (P00742 235-488 limits assumed): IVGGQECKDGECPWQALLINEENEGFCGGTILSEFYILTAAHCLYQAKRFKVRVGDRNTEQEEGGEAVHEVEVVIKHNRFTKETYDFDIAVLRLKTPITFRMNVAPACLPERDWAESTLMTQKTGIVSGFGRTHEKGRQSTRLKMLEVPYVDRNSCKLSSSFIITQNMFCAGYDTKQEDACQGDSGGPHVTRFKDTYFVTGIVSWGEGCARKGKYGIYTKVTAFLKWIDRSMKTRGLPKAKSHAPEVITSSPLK
Sequence (P00742 41-179 limits assumed): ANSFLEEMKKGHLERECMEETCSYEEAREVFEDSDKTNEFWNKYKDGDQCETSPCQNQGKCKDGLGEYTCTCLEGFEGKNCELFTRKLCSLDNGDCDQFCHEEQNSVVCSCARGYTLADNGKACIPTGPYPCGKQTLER
Where a SMILES comes first, the peptide text is derived from it.

>  <molecule>
CCCC[C@@H]1NC(=O)[C@H](CCC(=O)O)NC(=O)[C@@H](CCCCN)NC(=O)[C@H](Cc2ccc(O)cc2)NC(=O)[C@@H]2CSSC[C@H](NC1=O)C(=O)N[C@@H]([C@@H](C)O)C(=O)N[C@@H](C)C(=O)N[C@@H](CO)C(=O)N[C@@H]([C@@H](C)CC)C(=O)N1CCC[C@H]1C(=O)N1CCC[C@H]1C(=O)N[C@@H](CCC(N)=O)C(=O)N2 [Ex. 127] (HELM PEPTIDE1{[Nle].C.T.A.S.I.P.P.Q.C.Y.[dK].E}$PEPTIDE1,PEPTIDE1,2:R3-10:R3|PEPTIDE1,PEPTIDE1,1:R1-13:R2$$$V2.0)

>  <FXa at 100 μM % (%)>
13.3

$$$$
>  <molecule>
CCCC[C@@H]1NC(=O)[C@H](C(C)C)NC(=O)[C@H]2CCCN2C(=O)[C@H](Cc2ccc(O)cc2)NC(=O)[C@@H]2CSSC[C@H](NC1=O)C(=O)N[C@@H]([C@@H](C)O)C(=O)N[C@@H](C)C(=O)N[C@@H](CO)C(=O)N[C@@H]([C@@H](C)CC)C(=O)N1CCC[C@H]1C(=O)N1CCC[C@H]1C(=O)N[C@@H](CCC(N)=O)C(=O)N2 [Ex. 125] (HELM PEPTIDE1{[Nle].C.T.A.S.I.P.P.Q.C.Y.[dP].V}$PEPTIDE1,PEPTIDE1,2:R3-10:R3|PEPTIDE1,PEPTIDE1,1:R1-13:R2$$$V2.0)

>  <FXa at 100 μM % (%)>
0

$$$$
>  <molecule>
CCCCCCCC[C@@H]1NC(=O)[C@@H]2CCCN2C(=O)[C@H]2CCCN2C(=O)[C@H](Cc2ccc(O)cc2)NC(=O)[C@H]([C@@H](C)O)NC(=O)[C@H](CCC(N)=O)NC(=O)[C@@H]2CCCN2C(=O)[C@@H]2CCCN2C(=O)[C@H]([C@@H](C)CC)NC(=O)[C@H](CO)NC(=O)[C@H](C)NC(=O)[C@H]([C@@H](C)O)NC(=O)[C@H](CCC(N)=O)NC1=O [Ex. 154] (HELM PEPTIDE1{[CCCCCCCC[C@H](N[*:1])C(=O)[*:2]].Q.T.A.S.I.P.P.Q.T.Y.[dP].P}$PEPTIDE1,PEPTIDE1,1:R1-13:R2$$$V2.0)

>  <FXa at 100 μM % (%)>
0

$$$$
>  <molecule>
CCCCCCCC[C@@H]1NC(=O)[C@@H]2CCCN2C(=O)[C@H]2CCCN2C(=O)[C@H](Cc2ccc(O)cc2)NC(=O)[C@@H]2CSSC[C@H](NC1=O)C(=O)N[C@@H]([C@@H](C)O)C(=O)N[C@@H](C)C(=O)N[C@@H](CO)C(=O)N[C@@H]([C@@H](C)CC)C(=O)N1CCC[C@H]1C(=O)N1CCC[C@H]1C(=O)N[C@@H](CCC(N)=O)C(=O)N2 [Ex. 102] (HELM PEPTIDE1{[CCCCCCCC[C@H](N[*:1])C(=O)[*:2]].C.T.A.S.I.P.P.Q.C.Y.[dP].P}$PEPTIDE1,PEPTIDE1,2:R3-10:R3|PEPTIDE1,PEPTIDE1,1:R1-13:R2$$$V2.0)

>  <FXa at 100 μM % (%)>
0

$$$$
